src = a collection of fitness landscapes (doi:10.1126/science.1257360)

B1: PhoQ; a variant is named by its letters at X, in order, P23837 (parent)
chain: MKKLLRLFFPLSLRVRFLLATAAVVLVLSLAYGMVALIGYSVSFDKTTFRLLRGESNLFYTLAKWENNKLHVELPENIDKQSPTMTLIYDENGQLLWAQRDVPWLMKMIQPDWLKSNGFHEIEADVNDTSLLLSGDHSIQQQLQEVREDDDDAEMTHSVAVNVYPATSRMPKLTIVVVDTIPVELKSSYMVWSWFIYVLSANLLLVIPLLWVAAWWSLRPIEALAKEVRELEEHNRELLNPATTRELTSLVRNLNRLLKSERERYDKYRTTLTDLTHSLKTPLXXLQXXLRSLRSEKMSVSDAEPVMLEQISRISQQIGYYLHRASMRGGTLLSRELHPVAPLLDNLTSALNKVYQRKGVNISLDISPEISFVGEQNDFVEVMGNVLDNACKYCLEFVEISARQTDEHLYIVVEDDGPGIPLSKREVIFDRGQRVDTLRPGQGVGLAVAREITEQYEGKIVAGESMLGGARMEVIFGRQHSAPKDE

variants of: B1; assay: enrichment ratio after two sorts for PhoP signalling (ratio (wild type AVST 3.29)); higher = more functional; conditions: with PhoP (E. coli)
The full ranking holds about 140,000 sequences; the median of “enrichment ratio after two sorts for PhoP signalling” is about 0, and the highest 2% start at about 11. This is one part of a sample in which the highest values are shown more often than they occur.
reported property: enrichment ratio

{"change": "GQTA", "enrichment ratio": "≤ 0.25"}
{"change": "TQSC", "enrichment ratio": 15.3}
{"change": "YMKE", "enrichment ratio": "≤ 0.25"}
{"change": "TQTA", "enrichment ratio": 5.01}
{"change": "TQTK", "enrichment ratio": "≤ 0.25"}
{"change": "YNMN", "enrichment ratio": "≤ 0.25"}

Exercise: I would be grateful if you could share the reported enrichment ratio for `LFFM` .
Solution: ≤ 0.25

Exercise: I would be grateful if you could share the reported enrichment ratio for `NQSC` .
Solution: ≤ 0.25

Exercise: I would be grateful if you could share the reported enrichment ratio for `TQTM` .
Solution: 22.5

Exercise: I would be grateful if you could share the reported enrichment ratio for `EPCV` .
Solution: ≤ 0.25

Exercise: I would be grateful if you could share the reported enrichment ratio for `TQTC` .
Solution: 18.9
